FYI, the data here is from ChEMBL document CHEMBL1144330.

Target: Caspase-8 (Homo sapiens, UniProt Q14790)
Sequence (Q14790 217-374 limits assumed): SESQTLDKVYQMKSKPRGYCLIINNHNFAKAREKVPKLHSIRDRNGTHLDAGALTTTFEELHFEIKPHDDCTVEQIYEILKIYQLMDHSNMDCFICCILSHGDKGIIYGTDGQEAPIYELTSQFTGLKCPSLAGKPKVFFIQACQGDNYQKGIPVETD
Sequence (Q14790 385-479 limits assumed): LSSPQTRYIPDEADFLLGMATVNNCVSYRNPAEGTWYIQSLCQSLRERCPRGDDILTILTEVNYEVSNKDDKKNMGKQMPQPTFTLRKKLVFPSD
Assay: Inhibitory concentration against recombinant human caspase-8 […]
Lab note: anything with IC50 below 7 µM is marked 1; values at 7 µM or higher are marked 0.

CCC(C(=O)N[C@@H](CC(=O)O)C(=O)CSCc1ccccc1)n1ccnc(NCc2cccs2)c1=O (stereo partly drawn) | 1
CCC(C(=O)N[C@@H](CC(=O)O)C(=O)CNCN1CCC(Cc2ccccc2)CC1)n1ccnc(NCc2nonc2C)c1=O (stereo partly drawn) | 1
CCC(C(=O)N[C@@H](CC(=O)O)C(=O)CNCN1CCc2ccccc2C1)n1ccnc(NCc2nonc2C)c1=O (stereo partly drawn) | 0
CCC(C(=O)N[C@@H](CC(=O)O)C(=O)CSCc1ccccc1)n1ccnc(NCc2cncs2)c1=O (stereo partly drawn) | 1
CCC(C(=O)N[C@@H](CC(=O)O)C(=O)CN[C@@H](C)c1ccccc1)n1ccnc(NCc2nonc2C)c1=O (stereo partly drawn) | 0
CCCCCN(C)CNCC(=O)[C@H](CC(=O)O)NC(=O)C(CC)n1cc(C(C)(C)C)nc(NCc2nonc2C)c1=O (stereo partly drawn) | 1
CCC(C(=O)N[C@@H](CC(=O)O)C(=O)CNCN1CCCCC1)n1cc(C(C)(C)C)nc(NCc2nonc2C)c1=O (stereo partly drawn) | 0

Turning now to a further record.
Query :: Consider the molecule CCC(C(=O)N[C@@H](CC(=O)O)C(=O)CNCN1CCCC1)n1ccnc(NCc2nonc2C)c1=O (stereo partly drawn) . Is its IC50 strictly less than 7 µM?
Result :: 1

---

Target: Caspase-1 (Homo sapiens)
Sequence (P29466 120-297 limits assumed): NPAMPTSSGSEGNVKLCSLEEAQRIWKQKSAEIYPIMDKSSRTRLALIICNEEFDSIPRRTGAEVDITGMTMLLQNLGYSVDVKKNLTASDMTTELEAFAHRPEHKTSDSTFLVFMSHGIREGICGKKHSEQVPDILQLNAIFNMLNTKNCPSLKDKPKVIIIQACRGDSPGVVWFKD
Sequence (P29466 317-404 limits assumed): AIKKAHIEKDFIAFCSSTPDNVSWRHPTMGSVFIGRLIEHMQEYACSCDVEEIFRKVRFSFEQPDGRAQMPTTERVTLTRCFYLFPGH
Test: Inhibitory concentration against recombinant human caspase-1 in neuronal precursor (NT2) cells
Lab note: anything with IC50 below 900 nM is marked T; values at 900 nM or higher are marked F.

Please review the following examples before continuing.
CCCCCCN(C)CC(=O)C(CC(=O)O)NC(=O)C(CC)n1cc(C(C)(C)C)nc(NCc2nonc2C)c1=O (stereo unspecified) | T
CCCCCCN(C)CNCC(=O)[C@H](CC(=O)O)NC(=O)C(CC)n1cc(C(C)(CC)CC)nc(NCc2nonc2C)c1=O (stereo partly specified) | T
CCC(C(=O)N[C@@H](CC(=O)O)C(=O)CSCc1ccccc1)n1ccnc(NCCn2cccn2)c1=O (stereo partly specified) | F
CC[C@@H](C(=O)N[C@@H](CC(=O)O)C(=O)CSCc1ccccc1)n1cccc(NC(=O)[C@H](CC(=O)O)NC(C)=O)c1=O | T
CCC(C(=O)N[C@@H](CC(=O)O)C(=O)CNCN1CCOCC1)n1cc(C(C)(C)C)nc(NCc2nonc2C)c1=O (stereo partly specified) | T
CCCCCN(C)CNCC(=O)[C@H](CC(=O)O)NC(=O)C(CC)n1cc(C(C)(C)C)nc(NCc2nonc2C)c1=O (stereo partly specified) | T
CCC(C(=O)N[C@@H](CC(=O)O)C(=O)CSCc1ccccc1)n1ccnc(NCC2COc3ccccc3O2)c1=O (stereo partly specified) | T
CCC(C(=O)N[C@@H](CC(=O)O)C(=O)CCCc1ccccc1)n1cc(C(C)(C)C)nc(NCc2nonc2C)c1=O (stereo partly specified) | F
CCC(C(=O)N[C@@H](CC(=O)O)C(=O)CNCN1CCCCC1)n1cc(C(C)(C)C)nc(NCc2nonc2C)c1=O (stereo partly specified) | T
CCCCCCN(C)CNCC(=O)[C@H](CC(=O)O)NC(=O)C(CC)n1cc(C(C)C)nc(NCc2nonc2C)c1=O (stereo partly specified) | T

Query :: Consider the molecule CCC(C(=O)N[C@@H](CC(=O)O)C(=O)CSCc1ccccc1)n1ccnc(NCc2ccon2)c1=O (stereo partly specified) . Is its IC50 strictly less than 900 nM?
Result :: T

Query :: Consider the molecule CCOCN(C)CNCC(=O)[C@H](CC(=O)O)NC(=O)C(CC)n1ccnc(NCc2nonc2C)c1=O (stereo partly specified) . Is its IC50 strictly less than 900 nM?
Result :: F

Query :: Consider the molecule CCC(C(=O)N[C@@H](CC(=O)O)C(=O)CSCc1ccccc1)n1ccnc(NCCn2nc(C)cc2C)c1=O (stereo partly specified) . Is its IC50 strictly less than 900 nM?
Result :: F

Query :: Consider the molecule CCC(C(=O)N[C@@H](CC(=O)O)C(=O)CNCN1CCC(Cc2ccccc2)CC1)n1ccnc(NCc2nonc2C)c1=O (stereo partly specified) . Is its IC50 strictly less than 900 nM?
Result :: T

---

Molecular target: Caspase-8 (Homo sapiens)
Assay: Inhibitory concentration against recombinant human caspase-8 […]
Measured IC50 values are reported for all entries that follow.

// known answers, use as guide
CCC(C(=O)N[C@@H](CC(=O)O)C(=O)CSCc1ccccc1)n1ccnc(NCCCc2nc(C)no2)c1=O (stereo partly drawn) | > 10 µM
CCC(C(=O)N[C@@H](CC(=O)O)C(=O)CSCc1ccccc1)n1ccnc(NCc2nonc2C)c1=O (stereo partly drawn) | 2.46 µM
CCCCCN(C)CNCC(=O)[C@H](CC(=O)O)NC(=O)C(CC)n1ccnc(NCc2nonc2C)c1=O (stereo partly drawn) | > 10 µM
CCC(C(=O)N[C@@H](CC(=O)O)C(=O)CSCc1ccccc1)n1ccnc(NCc2nc(C)no2)c1=O (stereo partly drawn) | 6.42 µM

The compound listed as CCCCCCN(C)CNCC(=O)[C@H](CC(=O)O)NC(=O)C(CC)n1cc(C(C)(CC)CC)nc(NCc2nonc2C)c1=O (stereo partly drawn) shows IC50 equal to > 10 µM

The compound listed as CCCCCCCCN(C)CNCC(=O)[C@H](CC(=O)O)NC(=O)C(CC)n1ccnc(NCc2nonc2C)c1=O (stereo partly drawn) shows IC50 equal to > 10 µM

The compound listed as CCC(C(=O)N[C@@H](CC(=O)O)C(=O)CNCN(C)C)n1ccnc(NCc2nonc2C)c1=O (stereo partly drawn) shows IC50 equal to > 10 µM

The compound listed as CCCCCN(C)CC(=O)C(CC(=O)O)NC(=O)C(CC)n1cc(C(C)(C)C)nc(NCc2nonc2C)c1=O (stereo not drawn) shows IC50 equal to 4.03 µM

---

Target: Caspase-4 (Homo sapiens, UniProt P49662)
Test: Inhibitory concentration against casp-4 in neuronal precursor (NT2) cells
MEASUREMENT TYPE: pIC50
# reply with the number alone; pIC50 is -log10 of concentration in mol/L

The compound listed as CCCCCN(C)CC(=O)C(CC(=O)O)NC(=O)C(CC)n1cc(C(C)(C)C)nc(NCc2nonc2C)c1=O (stereo unspecified) shows pIC50 equal to 6.30

---

Measured IC50 values are reported for all entries that follow.
Molecular target: Caspase-7 (Homo sapiens)
Sequence (P55210 whole entry): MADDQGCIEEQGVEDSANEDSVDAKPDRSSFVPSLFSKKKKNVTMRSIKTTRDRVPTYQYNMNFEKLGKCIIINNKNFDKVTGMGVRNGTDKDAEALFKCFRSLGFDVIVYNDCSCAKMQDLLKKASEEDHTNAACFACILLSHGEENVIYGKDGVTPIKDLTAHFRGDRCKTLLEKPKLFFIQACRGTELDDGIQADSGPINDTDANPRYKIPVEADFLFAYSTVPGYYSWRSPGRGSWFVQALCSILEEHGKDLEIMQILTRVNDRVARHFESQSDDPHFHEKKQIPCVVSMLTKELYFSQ
Experiment: Inhibitory concentration against recombinant human caspase-7 […]
Please give a number only; it is taken to be in nM.

// known answers, use as guide
CCCCCCN(C)CNCC(=O)[C@H](CC(=O)O)NC(=O)C(CC)n1cc(C(C)(C)C)nc(NCc2nonc2C)c1=O (stereo partly specified) | 42
CCC(C(=O)N[C@@H](CC(=O)O)C(=O)CN[C@@H](C)c1ccccc1)n1ccnc(NCc2nonc2C)c1=O (stereo partly specified) | 1040
CCCCCCN(C)CNCC(=O)[C@H](CC(=O)O)NC(=O)C(CC)n1cc(C(C)C)nc(NCc2nonc2C)c1=O (stereo partly specified) | 65

The compound listed as CCC(C(=O)N[C@@H](CC(=O)O)C(=O)CSCc1ccccc1)n1ccnc(NCc2cncs2)c1=O (stereo partly specified) shows IC50 equal to 490

The compound listed as `CC(=O)N[C@@H](CC(=O)O)C(=O)N[C@@H](CCC(=O)O)C(=O)N[C@H](C(=O)N[C@@H](CC(=O)O)C(=O)CCCc1ccccc1)C(C)C` shows IC50 equal to 8

The compound listed as CCC(C(=O)N[C@@H](CC(=O)O)C(=O)CNCN1CCCCC1)n1cc(C(C)(C)C)nc(NCc2nonc2C)c1=O (stereo partly specified) shows IC50 equal to 130

The compound listed as CCC(C(=O)N[C@@H](CC(=O)O)C(=O)CNCN(CC)CC)n1ccnc(NCc2nonc2C)c1=O (stereo partly specified) shows IC50 equal to 3240

---

Molecular target: UniProt P49662
Sequence (P49662 whole entry): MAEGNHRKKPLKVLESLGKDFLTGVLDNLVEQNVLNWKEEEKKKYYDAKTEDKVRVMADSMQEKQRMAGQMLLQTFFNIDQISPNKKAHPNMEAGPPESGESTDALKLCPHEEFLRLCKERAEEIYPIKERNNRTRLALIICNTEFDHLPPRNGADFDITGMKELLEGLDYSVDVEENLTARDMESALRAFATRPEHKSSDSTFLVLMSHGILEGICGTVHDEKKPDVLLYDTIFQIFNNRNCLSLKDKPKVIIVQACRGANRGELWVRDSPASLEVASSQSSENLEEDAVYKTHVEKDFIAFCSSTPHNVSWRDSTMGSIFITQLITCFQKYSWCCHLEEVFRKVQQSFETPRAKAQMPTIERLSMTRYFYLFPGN
Experiment: Inhibitory concentration against human caspase-4 in neuronal precursor (NT2) cells
MEASUREMENT TYPE: pIC50
# reply with the number alone; pIC50 is -log10 of concentration in mol/L

The compound listed as CCCCCCN(C)CC(=O)C(CC(=O)O)NC(=O)C(CC)n1cc(C(C)(C)C)nc(NCc2nonc2C)c1=O (stereo unspecified) shows pIC50 equal to 6.52
